# Assay system: c-Myc peptide LE40 (Homo sapiens, UniProt P01106)
pKd: −log10 of the molar value.

| Compound | pKd |
| --- | --- |
| CSCC[C@H](NC(=O)OCC1c2ccccc2-c2ccccc21)C(=O)N[C@@H](CC(C)C)B1O[C@@H]2C[C@@H]3C[C@@H](C3(C)C)[C@]2(C)O1 [Compound A5] | 6.80 |
